Just for reference, patent US20130131075A1 is where these values come from.

- SYSTEM NAME: cynomolgus BK1-receptor (Macaca fascicularis)
- Construct: expressed in transfected cells; host or cells: CHO cells (homogenate)
- Sequence (Q3BCU0 1-352): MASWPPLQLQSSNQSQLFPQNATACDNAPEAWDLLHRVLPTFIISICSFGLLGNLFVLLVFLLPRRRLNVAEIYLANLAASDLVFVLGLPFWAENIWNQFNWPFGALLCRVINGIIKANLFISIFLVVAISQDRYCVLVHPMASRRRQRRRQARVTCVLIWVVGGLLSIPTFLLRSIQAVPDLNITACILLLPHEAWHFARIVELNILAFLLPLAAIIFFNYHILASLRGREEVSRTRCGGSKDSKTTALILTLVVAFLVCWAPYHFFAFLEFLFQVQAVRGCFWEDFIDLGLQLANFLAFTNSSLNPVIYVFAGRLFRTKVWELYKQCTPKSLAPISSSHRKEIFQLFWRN
- TEST: cynoBK1-receptor binding assay
- PARTICULARS: at 10 μgmol/L; CHO cells expressing cynomolgus BK1-receptor, radioligand kallidine (DesArg10,Leu9)
OBSERVABLE: inhibition at 10 µM (%)
Entry rule: numbers only, all in %.

| MOLECULE | inhibition at 10 µM / % |
| --- | --- |
| O=C(NC1(C(=O)NCc2ncc(Nc3ccc(Cl)cc3C(F)(F)F)cc2F)CC1)c1cncnc1 | 101 |

Data request: Form field: reported inhibition at 10 µM of COc1cc(OC)cc(C(=O)N[C@@]2(C(=O)NCc3ccc(Nc4ccccc4C(F)(F)F)cc3)CCOC2)c1
Data returned: 87

Data request: Recorded inhibition at 10 µM for O=C(NC1(C(=O)NCc2ccc(Nc3ccc(F)cc3C(F)(F)F)cn2)CC1)c1cncnc1 , please?
Data returned: 108

====

Attribute: inhibition at 10 µM
- SYSTEM NAME: cynomolgus BK1-receptor (Macaca fascicularis)
- Construct: expressed in transfected cells; host or cells: CHO cells (homogenate)
- Sequence (Q3BCU0 1-352): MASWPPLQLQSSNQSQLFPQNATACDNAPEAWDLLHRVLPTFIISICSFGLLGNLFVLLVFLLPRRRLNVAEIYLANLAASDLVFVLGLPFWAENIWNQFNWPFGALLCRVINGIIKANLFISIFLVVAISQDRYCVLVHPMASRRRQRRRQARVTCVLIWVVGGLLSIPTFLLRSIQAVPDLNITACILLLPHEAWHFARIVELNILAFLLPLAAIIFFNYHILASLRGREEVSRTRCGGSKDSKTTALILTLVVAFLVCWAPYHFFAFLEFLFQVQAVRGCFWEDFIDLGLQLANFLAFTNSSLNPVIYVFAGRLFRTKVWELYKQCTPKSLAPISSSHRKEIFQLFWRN
- TEST: cynoBK1-receptor binding assay
- PARTICULARS: at 10 μgmol/L; CHO cells expressing cynomolgus BK1-receptor, radioligand kallidine (DesArg10,Leu9)
- Description: Description of the Method of Binding the cynoBK1-Receptor CHO cells that express the cynomolgus BK1-receptor are cultivated in “HAM'S F-12 Medium”. […] After the protein content has been determined 200 μl of the homogenate (50 to 250 μg protein/assay) are incubated for 60-180 minutes at ambient temperature with 0.5 to 5.0 nM kallidine (DesArg10,Leu9), [3,4-Prolyl-3,43H(N)] and increasing concentrations of the test substance in a total volume of 250 μl. […]
Unit % implied. Number only.

These recorded examples may help you get a feel for the data.
| MOLECULE | RESULT UNIT | inhibition at 10 µM |
| --- | --- | --- |
| O=C(N[C@@]1(C(=O)NCc2ccc(Nc3ccccc3C(F)(F)F)cc2)CCOC1)c1ccoc1 [(93)] | % | 84 |
| O=C(NC1(C(=O)NCc2ccc(Nc3ccc(Cl)cc3C(F)(F)F)cn2)CC1)c1cncnc1 [(55)] | % | 108 |
| Nc1cncc(C(=O)NC2(C(=O)NCc3ccc(Nc4ccc(F)cc4C(F)(F)F)cn3)CC2)n1 [(144)] | % | 97 |

Data request: Given the entry O=C(N[C@@]1(C(=O)NCc2ccc(Nc3ccccc3C(F)(F)F)cc2)CCOC1)c1cc(O)cc(O)c1 [(102)] , report its measured inhibition at 10 µM.
Data returned: 105

Data request: Entry COc1cc(C(=O)N[C@@]2(C(=O)NCc3ccc(Nc4ccccc4C(F)(F)F)cc3)CCOC2)ccn1 [(79)] has what inhibition at 10 µM?
Data returned: 104

Data request: Sample CNc1cncc(C(=O)NC2(C(=O)NCc3ccc(Nc4ccc(F)cc4C(F)(F)F)cn3)CC2)n1 [(168)] — what was its inhibition at 10 µM?
Data returned: 90

Data request: Recorded inhibition at 10 µM of O=C(NC1(C(=O)NCc2ccc(Nc3ccccc3C(F)(F)F)cc2)CC1)c1cccnc1 [(11)] , please.
Data returned: 99

Data request: Entry O=C(NC1(C(=O)NCc2ccc(Nc3ccccc3C(F)(F)F)cc2)CC1)c1cncnc1 [(4)] : reported inhibition at 10 µM = ?
Data returned: 109

Data request: Requested field: inhibition at 10 µM. Item: Cc1ccc(Nc2ccc(CNC(=O)C3(NC(=O)c4cncnc4)CC3)nc2)c(Cl)c1 [(189)]
Data returned: 96

Data request: For the molecule shown here, O=C(NC1(C(=O)NCc2ncc(Nc3ccc(F)cc3C(F)(F)F)cc2Cl)CC1)c1cncnc1 [(187)] , give the reported inhibition at 10 µM.
Data returned: 100

Data request: inhibition at 10 µM for CNc1ncc(C(=O)NC2(C(=O)NCc3ccc(Nc4ccc(F)cc4C#N)cc3)CC2)cn1 [(183)] ?
Data returned: 100

Data request: // inhibition at 10 µM lookup, key: O=C(N[C@@]1(C(=O)NCc2ccc(Nc3ccccc3C(F)(F)F)cc2)CCOC1)c1ccncc1 [(95)]
Data returned: 86
